Attribution: PubChem BioAssay AID2060488

tested on: 966289-007-R4-J1-PDC complex spheroid viability; assay: Anticancer human tumor 966289-007-R4-J1-PDC patient-derived pancreatic adenocarcinoma cell line growth inhibition [GQUAD]; settings: second compound 0.0316 µM; first compound 3.16 µM; active = viability on the fitted dose curve at most 10% of control; inactive = the rest;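 note: spheroids exposed to the agents for seven days before readout; percent viability relative to DMSO vehicle control wells taken as 100%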
Please reply with one of these outcomes: 1.0 = active, 0.0 = inactive

Past entries and their recorded results:
CCCS(=O)(=O)Nc1ccc(F)c(C(=O)c2c[nH]c3ncc(-c4ccc(Cl)cc4)cc23)c1F + Cc1cnc(CNC(=O)c2c(=O)c3ccc(N4CCCN(C)CC4)nc3n3c2sc2ccccc23)cn1 = 0.0
Cc1cccc(N(C)C(=O)C2C(O)CCN2c2nc(C)cc(C(F)(F)F)c2C#N)c1 (stereo unspecified) + Cc1cnc(CNC(=O)c2c(=O)c3ccc(N4CCCN(C)CC4)nc3n3c2sc2ccccc23)cn1 = 0.0
CC1COCCN1c1cc(C2(O)CC3CCC(C2)O3)c2cnn(-c3ccn[nH]3)c2n1 (stereo unspecified) + Cc1[nH]c2ccc(F)cc2c1-c1nc2c3cccnc3c3ncccc3c2[nH]1 = 1.0
CC1COCCN1c1cc(C2(S(C)(=N)=O)CC2)nc(-c2ccnc3[nH]ccc23)n1 (stereo unspecified) + Cc1[nH]c2ccc(F)cc2c1-c1nc2c3cccnc3c3ncccc3c2[nH]1 = 0.0
C=CCn1c(=O)c2cnc(Nc3ccc(N4CCN(C)CC4)cc3)nc2n1-c1cccc(C(C)(C)O)n1 + Cc1cnc(CNC(=O)c2c(=O)c3ccc(N4CCCN(C)CC4)nc3n3c2sc2ccccc23)cn1 = 1.0

For the next question, use this molecule.
Q: State the result this test recorded for COc1ncnc(C2CC2)c1-c1ncc2cnn(Cc3ccc(-c4nc(C(F)(F)F)cn4C(C)C)cc3)c2n1 + Cc1cnc(CNC(=O)c2c(=O)c3ccc(N4CCCN(C)CC4)nc3n3c2sc2ccccc23)cn1 .
Ans: 0.0
